test_target: C5a anaphylatoxin chemotactic receptor 1 (Homo sapiens)
test_method_notes: Antagonist activity at human C5a receptor in U937 cells assessed as inhibition of anaphylatoxin-induced intracellular calcium mobilization
Type: functional, cell-based, U-937
pIC50: −log10 of the molar value.
Below, each of the compounds is paired with its reported pIC50 value.
quantity_name: pIC50

compound	quantity_name	measured_result
CCc1cccc(CC)c1-c1cc(OC)c2c(n1)CCCC2N[C@@H]1CCCc2ccccc21 (stereo in doubt; 41)	pIC50	5.09
CCc1cccc(CC)c1-c1cc(OC)c2c(n1)CCCC2N(C)c1cccc2ccccc12 (centres undefined)	pIC50	6.77
CCN(c1cccc2ccccc12)C1CCCc2nc(-c3ccccc3C(C)C)cc(OC)c21 (centres undefined)	pIC50	5.77
CCc1cccc(CC)c1-c1cc(Cl)c2c(n1)CCCC2N(CC)c1cccc2ccccc12 (centres undefined)	pIC50	5.70
CCc1cccc(CC)c1-c1cc(OC)c2c(n1)CCCC2N1CCc2cccc(C(F)(F)F)c2C1 (centres undefined)	pIC50	6.57
CCc1cccc(CC)c1-c1cc(OC)c2c(n1)CCCC2N(C)c1cccc2cc(OC)ccc12 (centres undefined)	pIC50	6.74
CCc1ccccc1-c1cc(OC)c2c(n1)CCCC2N(CC)c1cccc2ccccc12 (centres undefined)	pIC50	6.19
CCc1cccc(CC)c1-c1cc(OC)c2c(n1)CCCC2N(CC)c1cccc2c1CCCC2 (centres undefined)	pIC50	6.66
CCc1cccc(CC)c1-c1cc(OC)c2c(n1)CCCC2N(C)c1c(C)ccc2ccccc12 (centres undefined)	pIC50	5.82

---

test_target: UniProtKB P21730
test_method_notes: Antagonist activity at human C5a receptor in U937 cells assessed as inhibition of anaphylatoxin-induced intracellular calcium mobilization
pIC50: −log10 of the molar value.
Classification field: enter true (1) for pIC50 values not below 6, false (0) for values below it.

compound	test_target	class
CCN(c1cccc2ccccc12)C1CCCc2nc(-c3cccnc3)cc(OC)c21 (centres undefined)	UniProtKB P21730	false (0)
CCN(c1cccc2ccccc12)C1CCCc2nc(-c3c(OC)cccc3OC)cc(OC)c21 (centres undefined)	UniProtKB P21730	false (0)
CCN(c1cccc2ccccc12)C1CCCc2nc(-c3c(C)cccc3C)cc(OC)c21 (centres undefined)	UniProtKB P21730	true (1)
CCc1cccc(CC)c1-c1cc(CC)c2c(n1)CCCC2N(CC)Cc1ccccc1 (centres undefined)	UniProtKB P21730	false (0)
CCN(c1cccc2ccccc12)C1CCCc2nc(-c3ccsc3)cc(OC)c21 (centres undefined)	UniProtKB P21730	false (0)
CCNC1CCCc2nc(-c3c(CC)cccc3CC)cc(OC)c21 (centres undefined)	UniProtKB P21730	false (0)
CCc1cccc(CC)c1-c1cc(OC)c2c(n1)CCCC2N[C@@H]1CCCc2ccccc21 (stereo in doubt; 40)	UniProtKB P21730	false (0)
CCN(c1cccc2ccccc12)C1CCCc2nc(-c3ccc4c(c3)OCO4)cc(OC)c21 (centres undefined)	UniProtKB P21730	false (0)
CCc1cccc(CC)c1-c1cc(OC)c2c(n1)CCCC2N(C)c1ccc2ccccc2c1 (centres undefined)	UniProtKB P21730	false (0)
CCc1cccc(CC)c1-c1cc(OC)c2c(n1)CCCC2N(CCO)c1cccc2ccccc12 (centres undefined)	UniProtKB P21730	true (1)
CCc1cccc(CC)c1-c1cc(OC)c2c(n1)CCCC2N1CCc2c(cccc2C(F)(F)F)C1 (centres undefined)	UniProtKB P21730	false (0)
CCc1cccc(CC)c1-c1cc(OC)c2c(n1)CCCC2N[C@H]1CCCc2ccccc21 (stereo in doubt; 39)	UniProtKB P21730	false (0)

---

test_target: C5a anaphylatoxin chemotactic receptor 1 (Homo sapiens, UniProt P21730)
Sequence (P21730 whole entry): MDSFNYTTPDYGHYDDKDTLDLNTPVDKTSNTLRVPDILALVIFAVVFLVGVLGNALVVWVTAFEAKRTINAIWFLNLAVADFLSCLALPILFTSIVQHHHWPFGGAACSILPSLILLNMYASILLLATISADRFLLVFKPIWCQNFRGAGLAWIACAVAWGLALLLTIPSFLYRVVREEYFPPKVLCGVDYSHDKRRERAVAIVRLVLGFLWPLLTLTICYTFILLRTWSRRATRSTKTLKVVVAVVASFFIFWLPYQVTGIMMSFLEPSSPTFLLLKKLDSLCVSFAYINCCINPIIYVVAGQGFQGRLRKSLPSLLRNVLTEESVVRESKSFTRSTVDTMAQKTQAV
test_method_notes: Displacement of [125I]C5a from human C5a receptor in U937 cells
Format: cell-based, U-937
pKi: −log10 of the molar value.

compound	pKi
CCN(c1cccc2ccccc12)C1CCCc2nc(-c3c(OC)cccc3OC)cc(OC)c21 (configuration not stated)	5.92
CCc1cccc(CC)c1-c1cc(OC)c2c(n1)CCCC2N(CCO)c1cccc2ccccc12 (configuration not stated)	6.74

---

test_method_notes: Clearance in rat at 2 mg/kg, iv
condition_summary: in vivo

compound	clearance [mL/min/kg]
CCc1cccc(CC)c1-c1cc(OC)c2c(n1)CCCC2N(CC)c1cccc2ccccc12 (stereo in doubt; 27)	31

---

test_method_notes: Metabolic stability in human liver microsomes
Assay type: ADME, Microsome

molecule	half-life [min]
CCc1cccc(CC)c1-c1cc(OC)c2c(n1)CCCC2N(CC)c1cccc2ccccc12 (stereo in doubt; 27)	54

---

test_method_notes: Metabolic stability in human liver microsomes after 10 mins
Assay type: ADME, Microsome
condition_summary: read-out: Stability
quantity_name: remaining at 10 min (%)

compound	measured_result
CCc1cccc(CC)c1-c1cc(OC)c2c(n1)CCCC2N(CC)c1cccc2ccccc12 (stereo in doubt; 27)	88

---

test_method_notes: Cmax in rat at 10 mg/kg, po
Assay type: ADME, organism-based
Set-up: dose 10 mg/kg, route oral
condition_summary: in vivo

compound	unit	Cmax
CCc1cccc(CC)c1-c1cc(OC)c2c(n1)CCCC2N(CC)c1cccc2ccccc12 (stereo in doubt; 27)	µM	1.3
